Numbers sourced from patent US20210145976A1.

Target: T1, recombinant biotinylated CD71 extracellular domain (Sino Biologics) with an N-terminal 6His tag (human, UniProt P02786 89-760, biotinylated (sites not given))
T1 construct: extracellular domain; also called hCD71; huCD71
T1 sequence (P02786 other isoform, or with tags, fused parts or gaps): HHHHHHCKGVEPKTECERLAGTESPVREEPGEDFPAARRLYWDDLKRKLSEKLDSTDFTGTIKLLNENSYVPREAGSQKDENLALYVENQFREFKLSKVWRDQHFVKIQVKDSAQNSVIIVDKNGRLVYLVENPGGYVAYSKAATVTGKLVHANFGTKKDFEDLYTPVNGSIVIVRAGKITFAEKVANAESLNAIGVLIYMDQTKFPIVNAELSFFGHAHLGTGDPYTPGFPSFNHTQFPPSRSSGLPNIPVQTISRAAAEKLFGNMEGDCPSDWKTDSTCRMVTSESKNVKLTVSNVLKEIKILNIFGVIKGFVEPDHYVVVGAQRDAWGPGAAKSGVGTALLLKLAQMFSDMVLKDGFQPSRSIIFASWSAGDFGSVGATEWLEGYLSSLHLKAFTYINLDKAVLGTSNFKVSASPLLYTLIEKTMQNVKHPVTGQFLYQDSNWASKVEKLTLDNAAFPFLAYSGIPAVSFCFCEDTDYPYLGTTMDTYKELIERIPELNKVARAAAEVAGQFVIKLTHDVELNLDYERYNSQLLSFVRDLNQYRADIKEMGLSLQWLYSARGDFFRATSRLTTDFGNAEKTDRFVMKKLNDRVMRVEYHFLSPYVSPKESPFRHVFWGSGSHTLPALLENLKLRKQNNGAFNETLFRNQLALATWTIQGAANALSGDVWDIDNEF
Experiment: screening ELISA
Listing of recorded hCD71 by entry.
Kindly provide the number alone.

SEQ ID NO 297 (designed binder, FN3 domain) MLPAPKNLVVSRVTEDSARLSWTAPDAAFDSFLIPYAETSPSGEAITLFVPGSERSYDLTGLKPGTEYNVVIQGVKGGRPSNPLVAASTT; 2.59e+06
SEQ ID NO 295 (designed binder, FN3 domain) MLPAPKNLVVSRVTEDSARLSWTAPDAAFDSFFIGYLEPIPSGEAIVLTVPGSERSYDLTGLKPGTEYPVVIQGVKGGHPSQPLSAIFTT; 3.38e+06

Any idea what its hCD71 is? The binder is SEQ ID NO 308 (designed binder, FN3 domain) MLPAPKNLVVSEVTEDSARLSWQGVARAFDSFLITYREQIFAGEVIVLTVPGSERSYDLTGLKPGTEYPVWIQGVKGGSPSAPLSAISTT
609000

Query: hCD71; subject: SEQ ID NO 122 (designed binder, FN3 domain) MLPAPKNLVVSRVTEDSARLSWTAPDAAFDSFQIPYWEQSLGGEAIVLTVPGSERSYDLTGLKPGTEYEVWIEGVKGGDLSFPLSAISTT
2.31e+06

Look at this binder and give its reported hCD71. SEQ ID NO 230 (designed binder, FN3 domain) MLPAPKNLVVSRVTEDSARLSWTAPDAAFDSFQIRYPKRWISGEAIVLTVPGSERSYDLTGLKPGTEYEVVIRGVKGGEYSWPLSAIFTT
2e+06

Look up hCD71 for this binder: SEQ ID NO 205 (designed binder, FN3 domain) MLPAPKNLVVSRVTEDSARLSWTAPDAAFDSFDIDYDEPAWNGEAIVLTVPGSERSYDLTGLKPGTEYRVFIYGVKGGNTSWPLSAIFTT
434000

// query hCD71 value for entry SEQ ID NO 270 (designed binder, FN3 domain) MLPAPKNLVVSRVTEDSARLSWTAPDAAFDSFLIRYQEWQRWGEAIVLTVPGSERSYDLTGLKPGTEYTVHIAGVKGGMLSLPLSAIFTT
1.81e+06

I have this binder here, SEQ ID NO 200 (designed binder, FN3 domain) MLPAPKNLVVSRVTEDSARLSWTAPDAAFDSFYIEYYEWMHTGEAIVLTVPGSERSYDLTGLKPGTEYSVYIYGVKGGYPSSPLSAIFTT , and I need its recorded hCD71.
3.63e+06

# lookup: hCD71 of SEQ ID NO 121 (designed binder, FN3 domain) MLPAPKNLVVSRVTEDSARLSWTAPDAAFDSFSIDYPEFPVRGEAIVLTVPGSERSYDLTGPKPGTEYNVTIQGVKGGFPSMPLSAIFTT
2.37e+06

For SEQ ID NO 82 (designed binder, FN3 domain) MLPAPKNLVVSRVTEDSARLSWTAPDAAFDSFAIAYVEWWKLGEAIVLTVPGSERSYDLTGLKPGTEYVVPIPGVKGGGHSSPLSAIFTT , what is its reported hCD71?
3.53e+06

Could you share which hCD71 value was measured for SEQ ID NO 97 (designed binder, FN3 domain) MLPAPKNLVVSRVTEDSARLSWTAPDAAFDSFFISYFEGWASGEAIHLYVPGSERSYDLTGLKPGTEYSVHIQGVKGGQPSTPLSAIFTT ?
2.41e+06

Need hCD71, item SEQ ID NO 273 (designed binder, FN3 domain) MLPAPKNLVVSRVTEDSARLSWTAPDAAFDSFTIFKDGEAIVLTVPGSERSYDLTGLKPGTEYYVYIYGVKGGYPSKPLSAIFTT
4.65e+06

Fill in: hCD71 of SEQ ID NO 294 (designed binder, FN3 domain) MLPAPKNLVVSRVTEDSARLSWTAPDAAFDSFSIIYSEWNVTGEAIVLTVPGSERSYDLTGLKPGTEYDVWIEGVKGGGMSKPLSAISTT is ___
1.44e+06

Would you mind telling me what hCD71 value was observed for SEQ ID NO 165 (designed binder, FN3 domain) MLPARKNLVVSRVTEDSARLSWTAPDAAFDSFFIPYAEPSPTGEAIVLTVPGSERSYDLTGLKPGTEYSVLIHGVKGGHLSDPLSAISTT ?
2.64e+06
